Assay: yeast display, Sf9 membrane polyspecificity reagent, FACS + sequencing; frameworks hold sequencing errors
assay_metric: polyreactivity (PSR sort gate)

sequence_text	assay_metric	assay_result
QVQLVESGGGLVQAGGSLRLSCAASGRTSGFNTMGWYRQAPGKERELVAAISFSGGSTYYADSVKGRFTISRDNAKNTVYLQMNSLKPEDTAVYYCNALFRYLYRSGDYWGQGTQVTVSS	polyreactivity (PSR sort gate)	low polyreactivity
QVQLVESGGGLVQAGGSLRLSCAASGSIFFYYAMGWYRQAPGKERELVAAIDFNGGNTYYADSVKGRFTISRDNAKNTVYLQMNSLKPEDTAVYYCAAEWEGTYTTVPDEFNYWGQGTQVTVSS	polyreactivity (PSR sort gate)	high polyreactivity
QVQLVESGGGLVQAGGSLRLSCAASGSIFRFNTMGWYRQAPGKERELVAAITSGDGTYYADSVKGRFTISRDNAKNTVYLQMNSLKPEDTAVYYCAATRTYQLYRWAPRYYYWGQGTQVTVSS	polyreactivity (PSR sort gate)	high polyreactivity
QVQLVESGGGLVQAGGSLRLSCAASGFTFDVYAMGWYRQAPGKERELVATITWSGGSTTYADSVKGRFTISRDNAKNTVYLQMNSLKPEDTAVYYCAADRSVQVTFDYWGQGTQVTVSS	polyreactivity (PSR sort gate)	low polyreactivity
QVQLVESGGGLFQAGGSLRLSSAASGTRYYAMGWYRPAPGKERELVAGIRWRDGGTYYADSVKGRFTISRDNAKNTFYLQLNSLKPEDTAVYYCNASVTSWYKRAGYYWGQGSQVTVSS	polyreactivity (PSR sort gate)	high polyreactivity

Can you give me polyreactivity (PSR sort gate) for all of these, one by one?
1. PVQLVESGGGLVQAGGSLRLSCSSSGRIFASNAMGWYRQPPGKDRELVAAIDQGGGSTYYADSVKGRFTISRDNAKITVYLQMNSLKPEDTAVYYCAADYITAYPRLYNYWGLGTQVTVSS
2. QVQLVESGGGLVQAGGSLRLSCAASGLTIDYYTMGWYRQAPGKERELVAAINWSGGRTYYADSVKGRFTISRDHAKNTVYLQMNSLKPEDTAVYYCAADTYRRHDDDYWGQGTQVTVSS
3. QVQLVESGGGLVQAGGSLRLSCAASGGTFRVYAMGWYRQAPGKERELVAAISSGGSTNYADSVKGRFTISRDNAKNTVYLQMNSLKPEDTAVYYCNAKYRYRFARSPIYYYWGQGTQVTVSS
4. QVQLVESGGGLVQAGGSLRLSCAASGLIFRVYAMGWYRQAPGKERELVAAITWSDGSTYYADSVKGRFTISRDNAKNTVYLQMNSLKPEDTAVYYCAAEFWYDWDYDYYYWGQGTQVTVSS
5. QVQLVESGGGLVQAGGSLRLSCAASGSIIKPYAMGWYRQAPGKERDLVAAIRSSGGRTNYADSVKGRFTISRDNAKNTVYLQMNSLKPEDTAVYYCAALVRVTGTYYTKYDFWGQGNQVTVSS

1: low polyreactivity; 2: high polyreactivity; 3: low polyreactivity; 4: high polyreactivity; 5: high polyreactivity

Can you give me polyreactivity (PSR sort gate) for all of these, one by one?
1. QVQIVESGGGLVQAGGSLRLSCAASGSIFQGYAMGWYRQAPGKERELVAAITNRGGNTYYADSVKGRFTISRDNAKYSVYLQMNSLKPEDTAVYYCAADPRYSHSFSGYYDYWGQGTQVTVSS
2. PVQLVESGGGLVQAGGSLRLSCAASGSIFGYYAMGWYRQAPGKERELVAAITWSGDSTYYADSVKGRFTISRDNAKNTVYLQMNSLKPEDTAVYYCAARQFVHTRYFSFGYWGQGTQVTVSS

["high polyreactivity", "low polyreactivity"]

Can you give me polyreactivity (PSR sort gate) for all of these, one by one?
1. QVQLVESGGGLVQAGGSLRLSCAASGRTFLSNAMGWYRQAPGKERELVAAISNGDNTYYADSVKGRFTISRDNAKNTVVLQMNSLKPEDTAVYYCAADQYWSWIYYPVVEYDYWGEGTQVTVSS
2. QVQLVESGGGLVQAGGSLRLSCAASGNTFEYNAMGWYRQAPGKEREFVAAIDFSDGSTYYADSVKGRFTISRDNAKNTVYLQMNSLKPEDTAVYYCAGDYYSYFGNYYYWGQGTQVTVSS
3. QVQLVESGGGLVQAGGSLRLSCAASGSTLSTYVMGWYRQAPGKERELVAAITRRGGITYYADSVKGRFTISRDNAKNTVYLQMNSLKPEDTAVYYCNRLRYPHTFQTGGYWGQGTQVTVSS
4. QVQLVESGGGLVQAGGSLRLSCAASGSTFVIYTMGGSRQAPGKERELVAAISWSGGITRYADSVKGRFTISRDIAKNTVYLQMNSLKPEDTAVYYCNASQWPSRFDYWGQGTQVSVSS
5. QVQLVESGGGLVQAGGSLRLSCAASGSIFDDYGMGWYRQAPGKEWEFVADITSRGTRTYYADSVKGRFTISRDNAKNTVYLQMNCLKPEDTAGYYFNTLVGVDFWLVDYWGQGTQVTLSS
6. QVQLVESGGGLVQAGGSLRLSCDASGSTFGPYTMGWYRQAPGKERELVATISSGGSTYYADSVKGRFTISRDNAKNTVYLQMNSLKPEETAVYYCAARYWSIYDYWGPGTQVTVSS
7. QVQLVESGGGLVQAGGSLRLSCAASGLTLYKNGMGWYRQAPGKERELVAVISRSGGRTYYADSVKGRFTISRDNAKNTVYLQMNSLKPEDTAVYYCAARQYGPRYTYYYWGQGTQVTVSS

["low polyreactivity", "high polyreactivity", "high polyreactivity", "low polyreactivity", "low polyreactivity", "low polyreactivity", "high polyreactivity"]

Can you give me polyreactivity (PSR sort gate) for all of these, one by one?
1. QFQLVESGRGIVQAGGSLRLSCAASGFTFGPSAMVWYRQAPGKERELVAVISRSGGRTYYADSVKGRFTISRDNAKNTVYLQMNSLKPEDTAVYYCAAAGYGNDGYDYWGQGTQVTVSS
2. QVQLVESGGGLVQAGGSLRLSCAASGNTFTWYTMGWYRQAPGKERELVAVITSDGSTYYADSVKGRFTISRDNAKNTVYLQMNSLKPEDTAGYYCNALSADWYPEEDFWGQGTQVTVSS

["high polyreactivity", "low polyreactivity"]

###

Test: yeast display, Sf9 membrane polyspecificity reagent, FACS + sequencing; frameworks hold sequencing errors
assay_metric: polyreactivity (PSR sort gate)

sequence_text	polyreactivity (PSR sort gate)
QVHLVESGGGLVQAGGSLRLSCAASGGIFYPNAMGWYRQAPGKERELVAAISSGGGSTYYADSVKGRFTISRDNAKNTVYLQMNSLKPEDTAVYYCAASAYSLKSDVEYDYWGQGTLVTVSS	low polyreactivity
QVQLQESGGGLVQAGGSLRLSCAARGNNSSYYRMGWYRQAPGQEREFVATIAVGGTTNYADSVKGRFTISRDNEKTTLYLQRNSLKPEDTAVCFCAANSTQYTWFDYWGQGTQVPVSS	low polyreactivity
QVQLVESGGGLVQAGGSLRLSCAASGSIFKYYAMGWYRQAPGKERELVAAISSGGRTYYADSVKGRFTISRDNAKNTVYLQMNSLKPEDTAVYYCNRGTVNSWARGYWGQGTQVTVSS	high polyreactivity
QVQLVESGGCLVQAGGSLRLSCAASGRIFDHYAMGWYRQAPGKERELVAAITRSGGITYYADSVKGRFTISRDNAKNTVYLQMNSLKPDDTAVFYCAAYLKGNYYLGIARYVLYYWGQGTQVTVSS	low polyreactivity
QVQLVESGGGLVQAGGSLRLSCAASGFTFTTYVMGWYRQAPGKERELVAAISRRGTSTRYADSVKGRFTISRDNAKITVYLQMNSLKTEDTAVYFCAADRPYSIVPYDYWGQGTQVTVSS	high polyreactivity

Can you give me polyreactivity (PSR sort gate) for all of these, one by one?
1. QVQLVESGGGLVQAGGSLRLSCAASGSTFGFNAMGWYRQAPGKERELVAAIRGGDSTNYADSVKGRFTISRDNAKNTVYLQMNSLKPEDTAVYYCAAVLRYVVRPYSYWSGGYDYWGQGTQVTVSS
2. QVQLVESGGGLVQAGGSLRLSCAASGRIFRYNAKGWYRQAPGKERELVAAISRDGSTYYADSVKGRFTISRDNAKNTVYLQMKSLKPEDTAVYYCAAGYSRRGWRRAYNYWGQGTQVTVSS
3. QVQLHESGGGLVHACGSLRPSCAASGSISDSWTMSWYRQAPGKEREFVAGITWGGTTNYADSVKRRFTISRDNAKNNVFLQMNSLKPEDTAVYYCAAVSYYGVDQYRITVYTYEYWGQGTQVTVSS
4. QVQRVESCGGLVQAGGSLRLSCAASGSIFTQYTMGWYRQEPAKERELVAAISRSGGRTYYADSVKGRFTISRDNAKNTVYLQMNSLKPEDTAVYYCATRALYWRYGYDYWGQGTQVTVSS

1. high polyreactivity
2. high polyreactivity
3. low polyreactivity
4. high polyreactivity

Can you give me polyreactivity (PSR sort gate) for all of these, one by one?
1. QVQLVESGGGLVQAGGSHRLSCAASGRTFYRNAMGWYRPAPGKERELVAAITSGGGTTYADSVKGRFTISRDNAKNTVYLQMNSLKPEDTAVYYCAKRYNGRFRLGYEYWGQGTQVTVSS
2. QVQLEESGGGLVQAGGSLRLSCAASGIIFWWYAMGWYRQAPGKERELVAAISGTGGSTYYADSVKGRFTISRDNAKNTVYLQINRLKPEDTAVYFCAARGKSSSFYDYDYWGQGTQVTVSS

1: high polyreactivity; 2: low polyreactivity

Data provenance is the nanobody polyreactivity screen of Harvey et al. (2022).
